Listed variants paired with reported protein stability index
B1: FAM46C (parent)
chain: VRSRLEEAGIKVHDVRLNGSAAGH

- Variants of: B1
- assay: protein stability index of a GFP-peptide fusion (GPS, HEK-293T) (PSI 1-6); higher = more stable;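 further: lentivirally expressed fusions sorted by FACS into six bins by GFP to DsRed ratio, PSI derived from sequencing read proportions per bin multiplied by bin number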
- settings: c terminus: a fixed tail appended
endpoint: protein stability index

INSERT INTO measurements (change, result) VALUES
  ('E6F', 2.46),
  ('G23E', 2.3),
  ('V1Q', 4.59),
  ('L5R', 4),
  ('N18V', 2.7),
  ('V1K', 3.62),
  ('G19L', 2.16),
  ('A8P', 3.88),
  ('S20F', 1.35),
  ('A8K', 3.38),
  ('E6H', 2.9),
  ('A21Q', 1.72),
  ('E6Y', 2.1),
  ('L17E', 4.2),
  ('V12T', 2.29),
  ('V1S', 4.18),
  ('G9Y', 2.51),
  ('A22Q', 2.1),
  ('V1R', 4.11),
  ('I10C', 2.89),
  ('K11L', 3.83),
  ('A21K', 4.25);
